From: patent US10034886B2

# experimentalSystem: GLP-1R (Homo sapiens)
# Construct: host or cells: GLP-1R CRE-bla CHO-K1 cells
# Sequence (P43220 24-463): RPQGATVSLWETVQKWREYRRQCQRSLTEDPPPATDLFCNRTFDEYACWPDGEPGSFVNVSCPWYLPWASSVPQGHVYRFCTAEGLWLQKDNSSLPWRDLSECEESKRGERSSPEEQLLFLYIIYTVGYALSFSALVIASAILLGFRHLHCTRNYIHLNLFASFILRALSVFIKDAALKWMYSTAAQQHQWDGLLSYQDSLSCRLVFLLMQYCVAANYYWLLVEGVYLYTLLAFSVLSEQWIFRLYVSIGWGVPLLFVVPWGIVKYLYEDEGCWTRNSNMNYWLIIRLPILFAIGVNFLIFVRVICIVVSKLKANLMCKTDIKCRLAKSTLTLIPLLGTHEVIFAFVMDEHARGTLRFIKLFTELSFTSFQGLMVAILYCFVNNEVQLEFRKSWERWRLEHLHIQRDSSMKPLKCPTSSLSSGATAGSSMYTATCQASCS
# Sequence (P01275 100-127 partner limits assumed): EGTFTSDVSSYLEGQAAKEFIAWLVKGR
# testSummary: EC20 GLP-1(9-36) PAM cAMP assay: dose response of compound in the presence of fixed concentration of GLP-1(9-36)
# Type: cell-based
# conditionSet: GLP-1R CRE-bla CHO-K1 cells, compound dose response with fixed concentration of GLP-1(9-36), read-out: EC20 GLP-1(9-36) PAM EC50
pEC50: −log10 of the molar value.
readoutLabel: pEC50

Before answering, review these 3 worked examples.
Quick check: pEC50 of CC(C)(C)OC(=O)N1CCC(C2CCN(c3cnc(-c4ccc(C[C@H](NC(=O)c5ccc(C(C)(C)C)s5)C(=O)N5CC(C(=O)O)C5)cc4)nc3)CC2)CC1 ?
5.00 to 5.30

Please report the recorded pEC50 for CCc1ccc(C(=O)N[C@@H](Cc2ccc(-c3ncc(-c4ccc([C@H]5CC[C@H](CC)CC5)cc4)cn3)cc2)C(=O)N2CC(C(=O)O)C2)nc1 .
5.60 to 6.10

Suppose we examine the compound CCC[C@H]1CC[C@H](N2CCN(c3cnc(-c4ccc(C[C@H](NC(=O)c5ccc(C(C)(C)C)s5)C(=O)N5CC(C(=O)O)C5)cc4)nc3)CC2)CC1 ; what pEC50 value has been reported?
5.60 to 6.10

Next:
Can you share its pEC50? I mean this compound: C[C@@H](NC(=O)[C@H](Cc1ccc(-c2ncc(-c3ccc(-c4ccc(F)cc4)cc3)cn2)cc1)NC(=O)c1ccc(C(C)(C)C)s1)C(=O)O
> 6.10

What value of measured pEC50 is listed for COc1ccc(C2CCN(c3cnc(-c4ccc(CC(NC(=O)c5ccc(C(C)(C)C)s5)C(=O)N5CC(C(=O)O)C5)cc4)nc3)CC2)c(C)c1 (stereo not drawn) ?
5.60 to 6.10

Item CC1CCC(C2CCN(c3cnc(-c4ccc(C[C@H](NC(=O)c5ccc(C(C)(C)C)s5)C(=O)N5CC(C(=O)O)C5)cc4)nc3)CC2)CC1 (stereo partly drawn) has what recorded pEC50?
> 6.10

Form field: reported pEC50 of CCCCCCCOc1ccc(-c2nnc(-c3ccc(C[C@H](NC(=O)c4ccc(C(C)(C)C)cc4)C(=O)N4CC(C(=O)O)C4)cc3)s2)cc1
5.30 to 5.60

Given the compound CCCc1ccc(C(=O)N[C@@H](Cc2ccc(-c3ncc(-c4ccc(OCCCC(C)C)cc4)cn3)cc2)C(=O)N2CC(C(=O)O)C2)cc1 , what is its reported pEC50?
5.60 to 6.10

Tell me the measured pEC50 of CCCCCCCOc1ccc(-c2cnc(-c3ccc(C[C@H](NC(=O)c4ccc(C(C)(C)C)s4)C(=O)N4CC(CN)(C(=O)O)C4)cc3)nc2)cc1 , please.
> 6.10

Which pEC50 value belongs to CCCCc1ccc(C2CCN(c3cnc(-c4ccc(C[C@H](NC(=O)c5ccc(C(C)(C)C)s5)C(=O)N5CC(C(=O)O)C5)cc4)nc3)CC2)cc1 ?
> 6.10

Look up pEC50 for this compound: COc1cccc(C2CCN(c3cnc(-c4ccc(C[C@H](NC(=O)c5ccc(C(C)(C)C)s5)C(=O)N5CC(C(=O)O)C5)cc4)nc3)CC2)c1
> 6.10

Report pEC50 for CC[C@H]1CC[C@H](c2ccc(-c3cnc(-c4ccc(C[C@H](NC(=O)c5ccc(CC(C)C)s5)C(=O)O)cc4)nc3)cc2)CC1 please.
5.00 to 5.30
